- MEASURED TARGET: Integrin alpha-IIb/beta-3 (Homo sapiens, UniProt P08514+P05106)
- Sequence (P05106 27-788 limits assumed): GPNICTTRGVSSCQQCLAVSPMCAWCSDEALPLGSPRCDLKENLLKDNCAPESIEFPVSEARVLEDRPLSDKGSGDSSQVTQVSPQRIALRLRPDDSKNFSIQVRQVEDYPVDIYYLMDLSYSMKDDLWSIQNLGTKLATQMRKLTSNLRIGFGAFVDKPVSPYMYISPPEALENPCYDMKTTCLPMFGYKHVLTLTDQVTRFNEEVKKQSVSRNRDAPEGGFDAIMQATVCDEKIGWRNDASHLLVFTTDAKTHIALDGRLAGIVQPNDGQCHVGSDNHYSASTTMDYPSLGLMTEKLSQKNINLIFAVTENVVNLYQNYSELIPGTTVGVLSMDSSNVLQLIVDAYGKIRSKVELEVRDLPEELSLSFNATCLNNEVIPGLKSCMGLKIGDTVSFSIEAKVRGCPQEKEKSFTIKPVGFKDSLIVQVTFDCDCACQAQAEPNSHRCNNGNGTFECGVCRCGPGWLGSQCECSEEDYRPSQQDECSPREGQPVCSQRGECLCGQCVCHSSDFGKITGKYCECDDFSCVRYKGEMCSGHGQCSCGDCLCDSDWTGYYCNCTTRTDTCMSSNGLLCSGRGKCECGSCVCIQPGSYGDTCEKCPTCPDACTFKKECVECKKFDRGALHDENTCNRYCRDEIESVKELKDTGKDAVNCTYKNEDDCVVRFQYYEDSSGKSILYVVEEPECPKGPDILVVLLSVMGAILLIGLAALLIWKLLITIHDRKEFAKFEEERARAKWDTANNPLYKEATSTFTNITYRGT
- Sequence (P08514 32-887 limits assumed): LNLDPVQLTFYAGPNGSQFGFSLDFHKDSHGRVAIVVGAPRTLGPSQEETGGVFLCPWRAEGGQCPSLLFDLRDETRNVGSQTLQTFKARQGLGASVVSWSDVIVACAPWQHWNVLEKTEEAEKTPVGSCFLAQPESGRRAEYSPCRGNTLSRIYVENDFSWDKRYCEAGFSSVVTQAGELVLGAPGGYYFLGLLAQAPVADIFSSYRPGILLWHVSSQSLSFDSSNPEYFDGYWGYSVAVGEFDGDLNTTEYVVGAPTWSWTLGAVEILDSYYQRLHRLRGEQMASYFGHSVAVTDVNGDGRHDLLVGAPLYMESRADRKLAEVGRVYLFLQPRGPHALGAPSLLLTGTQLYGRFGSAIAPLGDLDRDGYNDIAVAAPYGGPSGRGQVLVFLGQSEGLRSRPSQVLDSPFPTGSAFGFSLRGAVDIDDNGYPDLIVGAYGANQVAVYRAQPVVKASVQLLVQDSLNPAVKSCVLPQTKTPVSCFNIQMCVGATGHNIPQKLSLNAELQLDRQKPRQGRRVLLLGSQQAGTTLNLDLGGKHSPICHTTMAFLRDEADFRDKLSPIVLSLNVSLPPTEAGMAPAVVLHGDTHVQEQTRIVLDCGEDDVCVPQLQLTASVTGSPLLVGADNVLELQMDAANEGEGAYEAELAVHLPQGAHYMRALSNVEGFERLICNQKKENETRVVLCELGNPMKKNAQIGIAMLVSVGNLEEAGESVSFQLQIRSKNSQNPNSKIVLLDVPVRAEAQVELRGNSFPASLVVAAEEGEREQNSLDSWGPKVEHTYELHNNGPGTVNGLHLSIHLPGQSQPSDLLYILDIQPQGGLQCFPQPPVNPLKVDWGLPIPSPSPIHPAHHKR
- Sequence (P08514 891-1039 limits assumed): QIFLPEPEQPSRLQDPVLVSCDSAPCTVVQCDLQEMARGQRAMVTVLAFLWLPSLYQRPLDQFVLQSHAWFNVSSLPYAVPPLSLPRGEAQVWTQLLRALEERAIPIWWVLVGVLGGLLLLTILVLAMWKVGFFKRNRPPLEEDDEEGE
- EXPERIMENT SUMMARY: The compound was tested in vitro for the inhibition of aggregation of human gel-filtered platelets(GFP)
Sorting guide: entries reporting IC50 beneath 20 nM go in the Y pile, the rest go in the N pile.

| MOLECULAR STRING | ASSIGNED LABEL |
| --- | --- |
| CCOCCS(=O)(=O)N[C@@H](CNC(=O)c1cc2sc(CCC3CCNCC3)cc2s1)C(=O)O | Y |
| CS(=O)(=O)N[C@@H](CNC(=O)c1cc2cc(CCC3CCNCC3)sc2s1)C(=O)O | Y |
| O=C(NC[C@@H](NS(=O)(=O)c1cccnc1)C(=O)O)c1cc2cc(CCC3CCNCC3)sc2s1 | Y |
| CCOCCS(=O)(=O)N[C@@H](CNC(=O)c1cc2cc(CCC3CCNCC3)sc2s1)C(=O)O | Y |
| O=C(NC[C@H](NS(=O)(=O)c1cccnc1)C(=O)O)c1cc2cc(C3CCNCC3)sc2s1 | N |
| O=C(O)CCNC(=O)c1cc2sc(CCC3CCNCC3)cc2s1 | N |
| O=C(NC[C@@H](NS(=O)(=O)c1ccccc1)C(=O)O)c1cc2cc(CCC3CCNCC3)sc2s1 | N |
| CCCCS(=O)(=O)N[C@@H](CNC(=O)c1cc2sc(CCC3CCNCC3)cc2s1)C(=O)O | Y |
| CS(=O)(=O)N[C@@H](CNC(=O)c1cc2sc(CCC3CCNCC3)cc2s1)C(=O)O | Y |
| O=C(NC[C@H](NS(=O)(=O)c1cccs1)C(=O)O)c1cc2cc(CCC3CCNCC3)sc2s1 | Y |
| O=C(NC[C@H](NS(=O)(=O)c1ccc(Cl)cc1)C(=O)O)c1cc2cc(CCC3CCNCC3)sc2s1 | Y |
| O=C(NC[C@H](NS(=O)(=O)c1cccnc1)C(=O)O)c1cc2sc(CCC3CCNCC3)cc2s1 | Y |
| O=C(NC[C@H](NS(=O)(=O)c1cccnc1)C(=O)O)c1cc2cc(CCCC3CCNCC3)sc2s1 | N |
| O=C(O)CCNC(=O)c1cc2cc(CCC3CCNCC3)sc2s1 | N |
| O=C(NC[C@H](NS(=O)(=O)c1cccs1)C(=O)O)c1cc2sc(CCC3CCNCC3)cc2s1 | Y |
| CCCCS(=O)(=O)N[C@@H](CNC(=O)c1cc2cc(CCC3CCNCC3)sc2s1)C(=O)O | N |
